Attribute: TGI
# System: SK-MEL-28 melanoma
# experiment_description: NCI tumour cell line growth inhibition, 48 h

Worked cases, answers included:
>  <compound>
Nc1nc(N)c2c(n1)NC(c1ccccc1)C1CCc3ccccc3C1=N2 (configuration not stated)

>  <system>
SK-MEL-28 melanoma

>  <TGI>
20.2 µM

$$$$
>  <compound>
Cc1c(N/C=C(\C#N)C(=O)c2ccc(Cl)cc2)c(=O)n(-c2ccccc2)n1C

>  <system>
SK-MEL-28 melanoma

>  <TGI>
> 100 µM

$$$$
>  <compound>
C=CC1(NS(=O)(=O)c2ccc(C)cc2)CCC(C(C)(C)C)CC1 (configuration not stated)

>  <system>
SK-MEL-28 melanoma

>  <TGI>
> 100 µM

$$$$

Next, consider the following compound.
Incoming: Can you look up the measured TGI of COc1ccc(/C=C2\CN(Cc3cn(CCNc4ccnc5cc(Cl)ccc45)nn3)C/C(=C\c3ccc(OC)c(OC)c3)C2=O)cc1OC for me?
Outgoing: 5.97 µM

These data points were gathered from PubChem BioAssay (NCI).
